- Measurement Target: human FFAR1 (GPR40) (Homo sapiens, UniProt O14842)
- Construct: Flag; expressed in transfected cells; host or cells: HEK293T
- Sequence (O14842 whole entry): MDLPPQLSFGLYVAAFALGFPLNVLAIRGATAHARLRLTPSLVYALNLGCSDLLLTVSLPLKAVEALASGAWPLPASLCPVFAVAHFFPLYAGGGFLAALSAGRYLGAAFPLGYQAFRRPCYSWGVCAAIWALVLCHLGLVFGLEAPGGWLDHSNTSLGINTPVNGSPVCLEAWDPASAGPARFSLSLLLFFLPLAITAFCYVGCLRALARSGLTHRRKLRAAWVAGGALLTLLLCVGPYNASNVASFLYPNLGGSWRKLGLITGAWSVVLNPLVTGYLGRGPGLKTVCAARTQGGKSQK
- Test: NFAT-RE-based reporter gene activity assay (Dual-Glo luciferase) for GPR40 agonistic activity in co-transfected HEK293T cells
- Type: cell-based
- Recorded Conditions: 4-hour treatment, class symbols
Experimental Readout: Efficacy (%)

[[record]]
smiles_code = "CC(C)(C)n1cc(-c2c(C3CCN(c4ccc5c(c4)OC(F)(F)O5)CC3)oc3cc([C@@H](CC(=O)O)C4CC4)ccc23)cn1"
experimental_readout = "Efficacy (%)"
reported_value = "††† (Efficacy (%) > 150)"

[[record]]
smiles_code = "COc1cccc(N2CCC(c3oc4cc([C@@H](CC(=O)O)C5CC5)ccc4c3C(=O)Nc3cc(C)ccc3F)CC2)c1"
experimental_readout = "Efficacy (%)"
reported_value = "††† (Efficacy (%) > 150)"


###

- Measurement Target: human FFAR1 (GPR40) (Homo sapiens, UniProt O14842)
- Construct: Flag
- Test: NFAT-RE-based reporter gene activity assay (Dual-Glo luciferase) for GPR40 agonistic activity in co-transfected HEK293T cells
- Recorded Conditions: 4-hour treatment
Experimental Readout: EC50

[[record]]
compound = "COc1ccc(F)c(N2CCC(c3oc4cc(C(CC(=O)O)C5CC5)ccc4c3CC(C)=O)CC2)c1 (stereo not drawn)"
reported_value = "100 to 500 nM"

[[record]]
compound = "COc1cccc(N2CCC(c3oc4cc(C(CC(=O)O)C5CC5)ccc4c3C(=O)Nc3cccc(C)c3F)CC2)c1 (stereo not drawn)"
reported_value = "100 to 500 nM"

[[record]]
compound = "COc1cccc(N2CCC(c3oc4cc([C@@H](CC(=O)O)C5CC5)ccc4c3C(CCC(C)C)c3ccccc3)CC2)c1 (stereo partly drawn)"
reported_value = "10 to 100 nM"

[[record]]
compound = "COc1ccc(F)c(N2CCC(c3oc4cc([C@H](C5CC5)C(C)C(=O)O)ccc4c3-c3ccc(C(C)(C)C)cc3)CC2)c1 (stereo partly drawn)"
reported_value = "100 to 500 nM"

[[record]]
compound = "COc1ccc(F)c(N2CCC(c3oc4cc([C@@H](CC(=O)O)C5CC5)ccc4c3C/C=C/C3CC3)CC2)c1"
reported_value = "10 to 100 nM"

[[record]]
compound = "COc1ccc(F)c(N2CCC(c3oc4cc(C(CC(=O)O)C5CC5)ccc4c3C(=O)Nc3cccc(C(C)(C)C)c3)CC2)c1 (stereo not drawn)"
reported_value = "100 to 500 nM"

[[record]]
compound = "COc1cccc(N2CCC(c3oc4cc(C(CC(=O)O)C5CC5)ccc4c3C(=O)Nc3c(F)cccc3C(F)(F)F)CC2)c1 (stereo not drawn)"
reported_value = "100 to 500 nM"

[[record]]
compound = "COc1cccc(N2CCC(c3oc4cc([C@@H](CC(=O)O)C5CC5)ccc4c3C(=O)Nc3cccc(C)c3)CC2)c1"
reported_value = "100 to 500 nM"

[[record]]
compound = "COc1cccc(N2CCC(c3oc4cc([C@@H](CC(=O)O)C5CC5)ccc4c3C(OCC(C)C)c3ccccc3F)CC2)c1 (stereo partly drawn)"
reported_value = "10 to 100 nM"

[[record]]
compound = "COc1cccc(N2CCC(c3oc4cc([C@@H](CC(=O)O)C5CC5)ccc4c3C(C)OCC(C)C)CC2)c1 (stereo partly drawn)"
reported_value = "10 to 100 nM"

[[record]]
compound = "COc1cccc(N2CCC(c3oc4cc(C(CC(=O)O)C5CC5)ccc4c3C(=O)Nc3c(C)cccc3F)CC2)c1 (stereo not drawn)"
reported_value = "100 to 500 nM"

[[record]]
compound = "COc1cccc(N2CCC(c3oc4cc(C(CC(=O)O)C5CC5)ccc4c3-c3csc(C(C)C)n3)CC2)c1 (stereo not drawn)"
reported_value = "10 to 100 nM"

[[record]]
compound = "COc1ccc(F)c(N2CCC(c3oc4cc([C@@H](CC(=O)O)C5CC5)ccc4c3C(=O)Nc3cc(Cl)ccc3F)CC2)c1"
reported_value = "10 to 100 nM"

[[record]]
compound = "COc1cccc(N2CCC(c3oc4cc([C@@H](CC(=O)O)C5CC5)ccc4c3C(=O)Nc3cc([N+](=O)[O-])ccc3Cl)CC2)c1"
reported_value = "10 to 100 nM"

[[record]]
compound = "COc1cccc(N2CCC(c3oc4cc([C@@H](CC(=O)O)C5CC5)ccc4c3C(C)OCc3cccs3)CC2)c1 (stereo partly drawn)"
reported_value = "100 to 500 nM"

[[record]]
compound = "COc1cccc(N2CCC(c3oc4cc(C(CC(=O)O)C5CC5)ccc4c3-c3ccc(C(C)(C)C)cc3)CC2)c1 (stereo not drawn)"
reported_value = "100 to 500 nM"

[[record]]
compound = "COc1ccc(F)c(N2CCC(c3oc4cc([C@H](C5CC5)C(F)C(=O)O)ccc4c3-c3cccc(C(C)(C)C)c3)CC2)c1 (stereo partly drawn)"
reported_value = "10 to 100 nM"

[[record]]
compound = "COc1ccc(F)c(N2CCC(c3oc4cc(C(CC(=O)O)C5CC5)ccc4c3C(=O)NC(C)(C)C)CC2)c1 (stereo not drawn)"
reported_value = "100 to 500 nM"

[[record]]
compound = "COc1cccc(N2CCC(c3oc4cc([C@@H](CC(=O)O)C5CC5)ccc4c3C(OCC(C)C)c3ccc(C)cc3)CC2)c1 (stereo partly drawn)"
reported_value = "100 to 500 nM"

[[record]]
compound = "CCC(Cc1ccc2c(-c3cnn(C(C)(C)C)c3)c(C3CCN(c4cccc(OC)c4)CC3)oc2c1)C(=O)O (stereo not drawn)"
reported_value = "100 to 500 nM"

[[record]]
compound = "COc1cccc(N2CCC(c3oc4cc([C@@H](CC(=O)O)C5CC5)ccc4c3COC(=O)C(C)(C)C)CC2)c1"
reported_value = "100 to 500 nM"

[[record]]
compound = "CCCCC(c1ccccc1)c1c(C2CCN(c3cccc(OC)c3)CC2)oc2cc([C@@H](CC(=O)O)C3CC3)ccc12 (stereo partly drawn)"
reported_value = "10 to 100 nM"

[[record]]
compound = "COc1cccc(N2CCC(c3oc4cc([C@@H](CC(=O)O)C5CC5)ccc4c3C(=O)Nc3cc(C4CC4)ccc3Cl)CC2)c1"
reported_value = "> 500 nM"

[[record]]
compound = "COc1ccc(F)c(N2CCC(c3oc4cc(C(CC(=O)O)C5CC5)ccc4c3-c3cccc(F)c3)CC2)c1 (stereo not drawn)"
reported_value = "100 to 500 nM"

[[record]]
compound = "COc1ccc(F)c(N2CCC(c3oc4cc(C(CC(=O)O)C5CC5)ccc4c3C/C=C/C(C)C)CC2)c1 (stereo not drawn)"
reported_value = "100 to 500 nM"

[[record]]
compound = "COc1ccc(F)c(N2CCC(c3oc4cc(C(CC(=O)O)C5CC5)ccc4c3C3=CCC(C(C)(C)C)CC3)CC2)c1 (stereo not drawn)"
reported_value = "> 500 nM"

[[record]]
compound = "COc1cccc(N2CCC(c3oc4cc([C@@H](CC(=O)O)C5CC5)ccc4c3C(C)CCC(C)C)CC2)c1 (stereo partly drawn)"
reported_value = "10 to 100 nM"


###

- Measurement Target: human FFAR1 (GPR40) (Homo sapiens)
- Construct: Flag; expressed in transfected cells; host or cells: HEK293T
- Test: NFAT-RE-based reporter gene activity assay (Dual-Glo luciferase) for GPR40 agonistic activity in co-transfected HEK293T cells
- Assay type: cell-based
- Recorded Conditions: 4-hour treatment, class symbols
Experimental Readout: Efficacy (%)

[[record]]
molecule = "COc1cccc(N2CCC(c3oc4cc([C@@H](CC(=O)O)C5CC5)ccc4c3C(=O)Nc3cc(OC)ccc3F)CC2)c1 [Compound 260]"
reported_value = "††† (Efficacy (%) > 150)"

[[record]]
molecule = "COc1cccc(N2CCC(c3oc4cc([C@@H](CC(=O)O)C5CC5)ccc4c3C(=O)Nc3cc(F)ccc3Cl)CC2)c1 [Compound 266]"
reported_value = "††††"

[[record]]
molecule = "COc1cccc(-c2c(C3CCN(c4ccc5c(c4)OCO5)CC3)oc3cc(C(CC(=O)O)C4CC4)ccc23)c1 (centres unmarked) [Compound 211]"
reported_value = "††† (Efficacy (%) > 150)"

[[record]]
molecule = "COc1ccc(F)c(N2CCC(c3oc4cc([C@@H](CC(=O)O)C5CC5)ccc4c3C(=O)Nc3cc(C(F)(F)F)ccc3Cl)CC2)c1 [Compound 340]"
reported_value = "††† (Efficacy (%) > 150)"


###

- Measurement Target: human FFAR1 (GPR40) (Homo sapiens)
- Construct: Flag; expressed in transfected cells; host or cells: HEK293T
- Test: NFAT-RE-based reporter gene activity assay (Dual-Glo luciferase) for GPR40 agonistic activity in co-transfected HEK293T cells
- Type: cell-based
- Recorded Conditions: 4-hour treatment, class symbols
Experimental Readout: Efficacy (%)

[[record]]
molecule = "COc1cccc(N2CCC(c3oc4cc([C@@H](CC(=O)O)C5CC5)ccc4c3-c3cnn(C(C)(C)C)c3)CC2)c1"
measurement_target = "human FFAR1 (GPR40) (Homo sapiens)"
reported_value = "††† (Efficacy (%) > 150)"

[[record]]
molecule = "COc1cccc(N2CCC(c3oc4cc([C@@H](CC(=O)O)C5CC5)ccc4c3C(OCC(C)C)c3cccc(F)c3)CC2)c1 (stereo partly shown)"
measurement_target = "human FFAR1 (GPR40) (Homo sapiens)"
reported_value = "††† (Efficacy (%) > 150)"

